Assay: Caco-2 permeability (siponimod, reference compound)
Type: in vitro ADME, human
Details: human, Caco-2; SimCYP V9 input; Novartis internal studies; read-out: Caco 2 permeability, P Caco-2
quantity: Papp (×10⁻⁶ cm/s)

[[record]]
smiles_text = "CCc1cc(/C(C)=N/OCc2ccc(C3CCCCC3)c(C(F)(F)F)c2)ccc1CN1CC(C(=O)O)C1"
measurement = 16


---

Experiment: Physicochemical input parameters of siponimod
Conditions: SimCYP V12 input; Novartis internal studies; read-out: pKa 1
Excerpt: Supplement 228_2017_2404_MOESM2_ESM.docx, table 1 | column: Siponimod (V9); Siponimod (V12); Siponimod (V16)
quantity: pKa

[[record]]
smiles_text = "CCc1cc(/C(C)=N/OCc2ccc(C3CCCCC3)c(C(F)(F)F)c2)ccc1CN1CC(C(=O)O)C1"
measurement = 3.3


The reported measurements were obtained from paper PMC5849655.
